Target: Fuc(a1-2)[Gal(a1-3)]Gal(b1-3)GlcNAc(b1-2)Man(a1-3)[Fuc(a1-2)[Gal(a1-3)]Gal(b1-3)GlcNAc(b1-2)Man(a1-6)]Man(b1-4)GlcNAc(b1-4)[Fuc(a1-6)]GlcNAc
Assay: glycan array binding signal (z-score within array); higher = stronger binding
Settings: glycan notation: IUPAC condensed, linker removed
This is one part of a sample in which the strongest signals are shown more often than they occur.
Readout kind: glycan array binding signal (z-score)

{"columns": ["Binder", "Observed result"],
 "data": [
  ["AFCNVH (Aspergillus fumigatus) (protein) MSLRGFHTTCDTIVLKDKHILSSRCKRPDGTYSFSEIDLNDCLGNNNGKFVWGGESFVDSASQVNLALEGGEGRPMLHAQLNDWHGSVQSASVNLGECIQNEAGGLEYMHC", -0.326],
  ["LF82 (Escherichia coli) (protein) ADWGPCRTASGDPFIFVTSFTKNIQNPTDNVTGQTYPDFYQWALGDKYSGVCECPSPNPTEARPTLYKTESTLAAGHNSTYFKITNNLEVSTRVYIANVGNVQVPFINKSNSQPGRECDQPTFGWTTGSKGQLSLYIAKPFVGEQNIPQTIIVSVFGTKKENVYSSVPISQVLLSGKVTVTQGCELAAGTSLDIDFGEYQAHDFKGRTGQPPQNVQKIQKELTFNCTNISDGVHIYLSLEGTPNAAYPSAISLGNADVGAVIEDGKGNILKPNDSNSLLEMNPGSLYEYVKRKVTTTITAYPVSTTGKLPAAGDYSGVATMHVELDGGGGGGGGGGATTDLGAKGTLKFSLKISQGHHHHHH", 3.84],
  ["Aap lectin (Staphylococcus epidermidis) (protein) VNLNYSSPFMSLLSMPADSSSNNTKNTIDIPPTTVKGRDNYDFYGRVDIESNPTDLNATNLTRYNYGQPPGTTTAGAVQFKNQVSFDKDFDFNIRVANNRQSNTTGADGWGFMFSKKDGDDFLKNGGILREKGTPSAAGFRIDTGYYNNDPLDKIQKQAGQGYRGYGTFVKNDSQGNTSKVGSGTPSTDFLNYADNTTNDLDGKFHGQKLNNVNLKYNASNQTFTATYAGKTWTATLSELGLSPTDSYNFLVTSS", 3.02],
  ["Protein L(B1-B4) (Finegoldia magna), Q51912 (protein) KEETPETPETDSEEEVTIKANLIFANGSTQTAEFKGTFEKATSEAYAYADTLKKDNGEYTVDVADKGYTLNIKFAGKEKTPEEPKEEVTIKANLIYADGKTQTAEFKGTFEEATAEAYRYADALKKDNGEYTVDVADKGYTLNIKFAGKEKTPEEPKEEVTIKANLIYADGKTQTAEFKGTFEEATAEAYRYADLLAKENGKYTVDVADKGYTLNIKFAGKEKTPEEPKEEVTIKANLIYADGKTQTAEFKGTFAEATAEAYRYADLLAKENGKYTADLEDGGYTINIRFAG", 3.09]
]}
